// provenance: patent US20160200791A1

Biological target: T1, human GLP-1 receptor (human, UniProt P43220 24-463)
T1 construct: whole, on cells
Assay: competitive SPA binding, displacement of 125I-GLP-1(7-36)NH2 from BHK membranes with human GLP-1R, high HSA (2.0%)
Numbered stars: 1 amine (or outer) side, 2 acyl side, 3 side chain; on linkers, the order of the positions; unused ones are H or OH. Square brackets hold non-standard residues; d marks the D form. Side chains are listed from the residue outwards. Ends that are not written are not given here. * marks the point of attachment. Hexadecanoyl(16-SO3H) = O=C(CCCCCCCCCCCCCCCS(=O)(=O)O)*; C18 diacid = O=C(O)CCCCCCCCCCCCCCCCC(=O)*; εLys = N[C@@H](CCCCN[*:1])C(=O)[*:2]; Cya = N[C@@H](CS(=O)(=O)O)C(=O)O; Trx = NC[C@H]1CC[C@H](C(=O)O)CC1; AEEA = NCCOCCOCC(=O)O; Aib = CC(C)(N)C(=O)O; GABA = NCCCC(=O)O
quantity: pIC50
Please note pIC50 is a logarithmic value: minus log10 of concentration in mol/L. Answer with that number alone.

Consider the binder H[Aib]EGTFTSDVSK([AEEA-AEEA-AEEA-AEEA-AEEA-εLys-εLys-C18 diacid])YLEK([AEEA-AEEA-AEEA-AEEA-AEEA-εLys-εLys-C18 diacid])QAAREFIK([AEEA-AEEA-AEEA-AEEA-AEEA-εLys-εLys-C18 diacid])WLVRGRG (Full chemical name printed at h-0082) . State its measured pIC50. 6.42

Name the recorded pIC50 of the binder listed here: H[Aib]EGTFTSDVSK([AEEA-AEEA-Cya-Trx-Hexadecanoyl(16-SO3H)])YLEK([AEEA-AEEA-Cya-Trx-Hexadecanoyl(16-SO3H)])QAAREFIK([AEEA-AEEA-Cya-Trx-Hexadecanoyl(16-SO3H)])WLVRGRG (Full chemical name printed at h-0058 (it prints 'Lys8' where Lys18 is meant)) 6.45

Fill in pIC50 for record H[Aib]EGTFTSDVSK([AEEA-AEEA-AEEA-AEEA-εLys-εLys-GABA-Hexadecanoyl(16-SO3H)])YLEK([AEEA-AEEA-AEEA-AEEA-εLys-εLys-GABA-Hexadecanoyl(16-SO3H)])QAAREFIK([AEEA-AEEA-AEEA-AEEA-εLys-εLys-GABA-Hexadecanoyl(16-SO3H)])WLVRGRG (Full chemical name printed at h-0086) 7.72

Provide only the value of recorded pIC50 for H[Aib]EGTFTSDVSK([AEEA-AEEA-εLys-εLys-Hexadecanoyl(16-SO3H)])YLEK([AEEA-AEEA-εLys-εLys-Hexadecanoyl(16-SO3H)])QAAREFIK([AEEA-AEEA-εLys-εLys-Hexadecanoyl(16-SO3H)])WLVRGRG (Full chemical name printed at h-0078) 7.00
